- measuredOn: Amine oxidase [flavin-containing] A (Homo sapiens)
- Sequence (P21397 whole entry): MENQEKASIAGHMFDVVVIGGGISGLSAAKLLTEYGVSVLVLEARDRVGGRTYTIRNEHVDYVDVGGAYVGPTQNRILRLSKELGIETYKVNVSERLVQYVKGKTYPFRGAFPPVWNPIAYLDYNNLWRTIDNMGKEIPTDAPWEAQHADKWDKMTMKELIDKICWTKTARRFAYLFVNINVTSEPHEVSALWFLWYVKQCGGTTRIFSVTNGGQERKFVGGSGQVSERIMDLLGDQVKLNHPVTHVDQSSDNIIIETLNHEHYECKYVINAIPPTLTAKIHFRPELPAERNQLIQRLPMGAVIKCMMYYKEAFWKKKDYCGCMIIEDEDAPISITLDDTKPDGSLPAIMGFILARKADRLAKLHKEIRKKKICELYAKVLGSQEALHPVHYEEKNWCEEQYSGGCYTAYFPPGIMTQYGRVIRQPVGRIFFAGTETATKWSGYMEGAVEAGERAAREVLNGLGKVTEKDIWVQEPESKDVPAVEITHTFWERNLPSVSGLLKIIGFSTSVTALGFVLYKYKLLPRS
- protocolSummary: Inhibition of human recombinant MAO-A using kynuramine as substrate incubated for 20 mins by fluorescence spectrophotometric analysis
compounds and their reported IC50

Use these answered entries as a reference point.
molecularstring=O=C(Cc1cc(C(=O)O)c(C(=O)O)cc1[N+](=O)[O-])c1cccs1 measuredon="Amine oxidase [flavin-containing] A (Homo sapiens)" observed="> 100 µM"
molecularstring=COc1ccc(-c2c(C=O)c3cc(C#N)c(C#N)cc3n2OC)cc1 measuredon="Amine oxidase [flavin-containing] A (Homo sapiens)" observed="0.147 µM"
molecularstring=COc1ccc(-c2cc3cc(C(=O)O)c(C(=O)O)cc3n2O)cc1 measuredon="Amine oxidase [flavin-containing] A (Homo sapiens)" observed="> 100 µM"
molecularstring=COn1c(-c2ccccc2)c(CO)c2cc(C#N)c(C#N)cc21 measuredon="Amine oxidase [flavin-containing] A (Homo sapiens)" observed="4.99 µM"
molecularstring=Cc1ccc(-c2cc3cc4c(cc3n2O)C(=O)NC4=O)cc1 measuredon="Amine oxidase [flavin-containing] A (Homo sapiens)" observed="1.16 µM"
molecularstring=COn1c(-c2ccccc2)c(Br)c2cc(C#N)c(C#N)cc21 measuredon="Amine oxidase [flavin-containing] A (Homo sapiens)" observed="> 100 µM"
molecularstring=O=C(Cc1cc2c(cc1[N+](=O)[O-])C(=O)NC2=O)c1ccccc1 measuredon="Amine oxidase [flavin-containing] A (Homo sapiens)" observed="5.38 µM"
molecularstring=O=C(Cc1cc(C(=O)O)c(C(=O)O)cc1[N+](=O)[O-])c1ccccc1 measuredon="Amine oxidase [flavin-containing] A (Homo sapiens)" observed="> 100 µM"
molecularstring=COc1ccc(-c2cc3cc(C#N)c(C#N)cc3n2O)cc1 measuredon="Amine oxidase [flavin-containing] A (Homo sapiens)" observed="1.84 µM"
molecularstring=COn1c(-c2ccc(C)cc2)cc2cc3c(cc21)C(=O)NC3=O measuredon="Amine oxidase [flavin-containing] A (Homo sapiens)" observed="1.75 µM"

Note down IC50 recorded for COn1c(-c2ccc(C)cc2)c(CO)c2cc(C#N)c(C#N)cc21
5.12 µM

Please list IC50 recorded for the compound COc1ccc(C(=O)Cc2cc3c(cc2[N+](=O)[O-])C(=O)N(Cc2ccccc2)C3=O)cc1
5.51 µM

Complete the entry with IC50 for COn1c(-c2ccccc2)cc2cc3c(cc21)C(=O)N(C)C3=O
1.24 µM

For O=C(O)c1cc2cc(-c3ccccc3)n(O)c2cc1C(=O)O , write its IC50.
23.3 µM

Please give measured IC50 of the following entry: O=C1NC(=O)c2cc3c(cc21)cc(-c1ccccc1)n3O
> 100 µM

Look up IC50 of O=C(Cc1cc2c(cc1[N+](=O)[O-])C(=O)NC2=O)c1cccs1 and report it.
6.12 µM

# return recorded IC50 for entry O=C1NC(=O)c2cc3c(cc21)cc(-c1cccs1)n3O
6.35 µM

In one line, give reported IC50 of the entry Cc1ccc(-c2cc3cc(C#N)c(C#N)cc3n2O)cc1 .
1.14 µM

Consider the compound Cc1ccc(C(=O)Cc2cc3c(cc2[N+](=O)[O-])C(=O)NC3=O)cc1 . State its measured IC50.
2.11 µM

Provide only the value of recorded IC50 for N#Cc1cc2cc(-c3cccs3)n(O)c2cc1C#N
11.1 µM

Provide only the value of recorded IC50 for COn1c(-c2ccc(C)cc2)c(C=O)c2cc(C#N)c(C#N)cc21
0.405 µM

Give the measured IC50 for COc1ccc(C(=O)Cc2cc(C(=O)O)c(C(=O)O)cc2[N+](=O)[O-])cc1
> 100 µM

Please indicate IC50 recorded for COc1ccc(C(=O)Cc2cc3c(cc2[N+](=O)[O-])C(=O)NC3=O)cc1
0.661 µM

Item O=C1NC(=O)c2cc3c(Cl)c(-c4ccccc4)[nH]c3cc21 : provide IC50
0.25 µM
